- Assay Target: L-lactate dehydrogenase (Plasmodium falciparum (isolate CDC / Honduras))
- Protocol Details: PfLDH activity inhibition – cell lysate, 3D7 strain, counter-screen for P. falciparum growth inhibition project (AID 2304);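 also: 0% = vehicle and 100% = reference inhibitor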
- Condition: P. falciparum 3D7 crude extract, LDH APAD/NBT absorbance; at 2 µM; hits give high values
Activity calls are given as the source filed them. No rule for the calls is given here.
Property Name: inhibition

1. CC(CNC(=O)C(c1cc2ccccc2o1)N1CCN(C(c2ccccc2)c2ccccc2)CC1)c1ccccc1 (stereo not drawn)    -5% (inactive)
2. Cc1cc(N[C@@H](CC(C)C)C(=O)NCc2cccs2)nc(Nc2ccccc2)n1    1% (inactive)
3. CC(C)N1CCN(c2ccc(OCCCN3CCN(c4cccc(Cl)c4Cl)CC3)c(C(F)(F)F)c2)CC1    0% (inactive)

Requested read-out inhibition, target or system L-lactate dehydrogenase (Plasmodium falciparum (isolate CDC / Honduras)), entry `FC(F)(F)c1ccc2nccc(NN=Cc3ccccc3Cl)c2c1`
5% (inactive)

Requested read-out inhibition, target or system L-lactate dehydrogenase (Plasmodium falciparum (isolate CDC / Honduras)), entry `O=C(c1cccc(-c2noc(C(F)(F)F)n2)c1)N1CCN(c2nsc3ccccc23)CC1`
-2% (inactive)

Requested read-out inhibition, target or system L-lactate dehydrogenase (Plasmodium falciparum (isolate CDC / Honduras)), entry `Cc1ccc(Cc2cnc(NCCSCc3ccc(CN(C)C)s3)[nH]c2=O)cn1`
0% (inactive)

Requested read-out inhibition, target or system L-lactate dehydrogenase (Plasmodium falciparum (isolate CDC / Honduras)), entry COc1ccc(C(=O)CCC(=O)N(CCC2CCCN2C)Cc2ccc(-c3ccc(CNCCc4ccc(S(C)(=O)=O)cc4)cn3)cc2)cc1F (stereo not drawn)
-2% (inactive)

Requested read-out inhibition, target or system L-lactate dehydrogenase (Plasmodium falciparum (isolate CDC / Honduras)), entry `O=c1[nH]nc(-c2ccc(N3CCCC3)c([N+](=O)[O-])c2)c2ccccc12`
-6% (inactive)

Requested read-out inhibition, target or system L-lactate dehydrogenase (Plasmodium falciparum (isolate CDC / Honduras)), entry `COc1ccc(Cl)cc1NC(=O)CN(C)C(=O)c1cnn(-c2ccccc2)n1`
-2% (inactive)

Requested read-out inhibition, target or system L-lactate dehydrogenase (Plasmodium falciparum (isolate CDC / Honduras)), entry `O=C(c1cccs1)N(Cc1cccc(-c2ccc(CNCCc3ccccc3)cc2)c1)C1CCN(Cc2ccccc2)CC1`
-3% (inactive)

Requested read-out inhibition, target or system L-lactate dehydrogenase (Plasmodium falciparum (isolate CDC / Honduras)), entry `O=C(NOCc1ccccc1)c1cc(Cl)ccc1O`
5% (inactive)

Requested read-out inhibition, target or system L-lactate dehydrogenase (Plasmodium falciparum (isolate CDC / Honduras)), entry `Cc1cc(NC(=O)NCCN2CCC(NC(=O)c3ccc(C(F)(F)F)cc3)CC2)c2ccccc2n1`
-3% (inactive)

Requested read-out inhibition, target or system L-lactate dehydrogenase (Plasmodium falciparum (isolate CDC / Honduras)), entry O=C(Cc1ccccc1)NC1CCN(c2ccnc3cc(Cl)ccc23)C1 (stereo not drawn)
-6% (inactive)

Reference source for all entries: PubChem BioAssay
